method description: chemical genetic growth profiling, strain panel (AID 1159580);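 note: tested at 20 µM; growth read once vehicle control cultures reached saturation at 30 °C; 1 = growth at the plate median or of vehicle wells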
run parameters: S. cerevisiae deletion strains, growth OD, locus YHR013C, strain ard1, stronger effect = lower value
In all, about 5,500 compounds went through this assay and about 2,000 (36%) were called active. Inconclusive results (about 18%) are left out. This is one part of the list.
Values of normalized growth strictly less than 1 map to satisfied, and values of at least 1 map to not satisfied.

molecule	label class
O=c1cc(-c2ccccc2)oc2cccc(O)c12	satisfied
O=C(Nc1ccccc1)Nc1ccccc1	satisfied
CCN(CC)CCOC(=O)C(c1ccccc1)c1ccccc1	satisfied
O=c1cc(-c2cc(O)c(O)c(O)c2)oc2cc(O)cc(O)c12	satisfied

Item "O=c1cc(-c2ccc(O)cc2)oc2cc(O)ccc12" : normalized growth beneath 1, strictly? satisfied

Item "N[C@@H]1[C@@H](O)[C@H](O)[C@@H](CO)O[C@H]1O" : normalized growth beneath 1, strictly? not satisfied

Item "Cc1nc2ccccn2c(=O)c1CCN1CCC(C(=O)c2ccc(F)cc2)CC1" : normalized growth beneath 1, strictly? satisfied

Item NS(=O)(=O)c1cc2c(cc1Cl)NC(C1CC3C=CC1C3)NS2(=O)=O (configuration not stated) : normalized growth beneath 1, strictly? satisfied

Item C[C@@H]1O[C@@H](O[C@H]2C[C@@H](O)[C@]3(CO)C4C(CC[C@]3(O)C2)[C@@]2(O)CC[C@H](C3=CC(=O)OC3)[C@@]2(C)C[C@H]4O)[C@H](O)[C@H](O)[C@H]1O (some centres not stated) : normalized growth beneath 1, strictly? not satisfied

Item "CC(=O)Nc1ccccc1" : normalized growth beneath 1, strictly? satisfied

###

method description: chemical genetic growth profiling, strain panel (AID 1159580);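 note: tested at 20 µM; growth read once vehicle control cultures reached saturation at 30 °C; 1 = growth at the plate median or of vehicle wells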
run parameters: S. cerevisiae deletion strains, growth OD, locus YOR329C, strain SCD5, stronger effect = lower value
Out of some 5,500 compounds screened, about 2,000 (36%) were called active. About 18% were inconclusive and are not listed. This is one part of the list.
Give measured normalized growth for each item. Keep answers brief.
Numbers only.

Example compounds with recorded normalized growth:
> print(dat)
                               query.smiles  value.measured
1             O=C1/C(=C/c2cccs2)COc2ccccc21             0.9
2  O=C1/C(=C/c2ccc(C(F)(F)F)cc2)COc2ccccc21           0.931
3  Cc1nn(Cc2nnc(SCc3cccc(C(F)(F)F)c3)o2)c(C)c1Br           0.978

// next item, normalized growth requested
Return reported normalized growth; argument: "S=C(NNc1ccccc1)Nc1cc(Cl)ccc1Cl" 0.952

###

method description: chemical genetic growth profiling, strain panel (AID 1159580);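 note: tested at 20 µM; growth read once vehicle control cultures reached saturation at 30 °C; 1 = growth at the plate median or of vehicle wells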
run parameters: S. cerevisiae deletion strains, growth OD, locus YKL009W, strain mrt4, stronger effect = lower value
The whole screen tested about 5,500 compounds, of which about 2,000 (36%) were called active. Not shown: some 18% with an inconclusive outcome. The list shows a part of the results.
Give measured normalized growth for each item. Keep answers brief.
One number for each entry.

Example compounds with recorded normalized growth:
compound	normalized growth
Nc1cc(-c2ccncc2)c[nH]c1=O	0.977
CCN(CCCc1ccccc1)CCCc1ccccc1	1.01
CCCC(C(=O)OCCN(CC)CC)(c1ccccc1)c1ccccc1	0.982
C[C@@H]1O[C@@H](O[C@H]2C[C@@H](O)[C@]3(CO)C4C(CC[C@]3(O)C2)[C@@]2(O)CC[C@H](C3=CC(=O)OC3)[C@@]2(C)C[C@H]4O)[C@H](O)[C@H](O)[C@H]1O (some centres not stated)	0.991

Working through the 3 compounds below one at a time, give normalized growth for each.
1. NNCCc1ccccc1
2. COc1cc2c(cc1O)C(Cc1ccc(O)cc1)N(C)CC2 (configuration not stated)
3. CCCCCC1C(=O)CCC1CC(=O)O (configuration not stated)

[0.995, 1.02, 0.972]
